Experiment: Cell Viability - LYMP2-019 (AID 973);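 further: cells exposed to compound for 24 h at 37 °C; nearly all actives have a fitted effect of over 55% in size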
Settings: LYMP2-019 lymphoblastoid cell line viability; series mostly up to 92.2 µM
Results filed as inconclusive are left out. Calls of active or inactive are those of the source. The call rests on the fitted dose curve; in most records, active means well fitted cell-killing curve with a large enough effect; inconclusive means small, poorly fitted or top-dose-only effect; inactive means flat fitted curve, though single readings scatter.
The categories you may choose from are yes (1) for active, no (0) for inactive

Incoming: Kindly provide the recorded test outcome for the following molecule: O=[N+]([O-])c1cccc(I)c1
Outgoing: no (0)

Incoming: Another molecule: OCC(CO)(CBr)CBr
Outgoing: no (0)

Incoming: Another molecule: S=C(NC1CCCCC1)NC1CCCCC1
Outgoing: no (0)

Incoming: Another molecule: CCc1ccc(C(c2ccc(CC)cc2)C(Cl)Cl)cc1
Outgoing: no (0)

Incoming: Another molecule: NC(=O)Nc1nc2ccccc2[nH]1
Outgoing: no (0)

Incoming: Another molecule: CCCCCCN
Outgoing: no (0)

Incoming: Another molecule: O=C(O)c1ccc([N+](=O)[O-])cc1
Outgoing: no (0)

Incoming: Another molecule: CCN(CC)c1ccc2c(C)cc(=O)oc2c1
Outgoing: no (0)

Incoming: Another molecule: Cc1ccc(O)c(N)c1
Outgoing: yes (1)

Incoming: Another molecule: c1ccc2c(c1)ccc1ccccc12
Outgoing: no (0)

Incoming: Another molecule: Cc1cc2nc(N)sc2cc1C
Outgoing: no (0)

Incoming: Another molecule: O=CC(=O)c1ccccc1
Outgoing: no (0)

Incoming: Another molecule: C=CC1CO1 (configuration not stated)
Outgoing: no (0)

Incoming: Another molecule: Nc1cc([N+](=O)[O-])ccc1O
Outgoing: no (0)

Incoming: Another molecule: c1ccc(Nc2cccc3ccccc23)cc1
Outgoing: no (0)

Incoming: Another molecule: CC(C)(C)C(=O)C1C(=O)c2ccccc2C1=O
Outgoing: no (0)

Incoming: Another molecule: c1ccc(SCCSc2ccccc2)cc1
Outgoing: no (0)

Incoming: Another molecule: CC(/C=C/C=C(C)/C=C/C(=O)O)=C\C=C\C=C(C)\C=C\C=C(C)\C=C\C(=O)O
Outgoing: no (0)

Incoming: Another molecule: COc1cc(-c2ccc(N=C=O)c(OC)c2)ccc1N=C=O
Outgoing: no (0)

Incoming: Another molecule: CC(C)OCC1CO1 (configuration not stated)
Outgoing: no (0)

Incoming: Another molecule: CC(CCC(=O)O)(c1ccc(O)cc1)c1ccc(O)cc1
Outgoing: no (0)

Incoming: Another molecule: CCCCNCC
Outgoing: no (0)

Incoming: Another molecule: Brc1ccc(-c2ccccc2)cc1
Outgoing: no (0)

Incoming: Another molecule: CC(=O)c1ccc(Cl)c(Cl)c1Cl
Outgoing: no (0)

Incoming: Another molecule: Cc1ccc2ccc3cccc4ccc1c2c34
Outgoing: no (0)

Incoming: Another molecule: CCNC(=S)NCC
Outgoing: no (0)

Incoming: Another molecule: C=CC(=O)CC
Outgoing: no (0)

Incoming: Another molecule: O=[N+]([O-])c1ccccc1Nc1ccccc1
Outgoing: no (0)

Incoming: Another molecule: C[Si](C)(C)Cl
Outgoing: no (0)

Incoming: Another molecule: CCCCCCc1ccc(-c2ccc(C#N)cc2)cc1
Outgoing: no (0)

Incoming: Another molecule: Nc1ccccc1O
Outgoing: no (0)

Incoming: Another molecule: C/C=C/C=C/C=O
Outgoing: yes (1)

----------
Target: Cytochrome P450 2D6 (Homo sapiens)
Assay: qHTS Assay for Inhibitors and Substrates of Cytochrome P450 2D6 (AID 891); further: nearly all actives have a fitted effect of over 60% in size; further: potency means the concentration at half of the fitted maximal effect
Details: recombinant CYP2D6, luciferin-ME EGE luminescence; series mostly up to 11.4 µM
Results filed as inconclusive are left out. Active and inactive are the calls of the source. Calls come from the whole dose curve; as a rule, active = well fitted inhibition curve with a large enough effect; inconclusive = small, poorly fitted or top-dose-only effect; inactive = no such curve, though single readings can be large or run the other way.
property-measured: Potency

Example entries and their recorded answers appear below.
CCN(CC)CCN1c2ccccc2Sc2ccc3ccccc3c21 :: 631 nM (active)
CN(Cc1ccccc1)Cn1ccnc1 :: 794 nM (active)
O=C(O)CSSCC(=O)O :: inactive
O[C@@H](COc1ccc(Cl)cc1Cl)CN1CCCC1 :: 316 nM (active)
CC1CCN(CC(=O)N2c3ccccc3Sc3cc4ccccc4cc32)CC1 :: 3980 nM (active)
O=C1C(Cl)=C(Nc2ccc(S(=O)(=O)Nc3ccccn3)cc2)C(=O)c2ccccc21 :: 3160 nM (active)

Incoming: Form: Entry = CC(C)(CN)CN | System = Cytochrome P450 2D6 (Homo sapiens) | Potency = ____
Outgoing: inactive

Incoming: Another compound: CC(C)c1cc(C(F)(F)F)nc(NNc2nc(C(C)C)cc(C(F)(F)F)n2)n1
Outgoing: 126 nM (active)

Incoming: Another compound: O=C(O)CCC/C=C\C[C@H]1[C@@H](/C=C\[C@@H](O)C2Cc3ccccc3C2)[C@H](F)C[C@H]1O
Outgoing: inactive

Incoming: Another compound: O=c1[nH]c(=O)n([C@H]2C[C@H](O)[C@H](CO)O2)cc1Br
Outgoing: inactive

Incoming: Another compound: C[C@H]1CC(C)(C)C[C@@](OCCN2CCCCC2)(c2ccccc2)C1
Outgoing: 631 nM (active)

----------
Target: Mitogen-activated protein kinase 10 (Mus musculus)
Assay: JNK3 AlphaScreen Assay (AID 530);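 further: kinase came from lysate of stimulated human HepG2 cells; signal reports phosphorylation of biotinylated GST-cJun 1-79 at Ser73 with 10 µM ATP; on the % scale 0 is the no-effect control and ±100 the full control effect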
Settings: JNK3 lysate, c-Jun phosphorylation; series mostly up to 11.4 µM
Inconclusive results are not listed. Activity calls are given as the source filed them. Calls follow the shape of the dose curve; as a rule, active = well fitted curve in either direction with a large enough effect (not every such curve was filed as active); inconclusive = small, poorly fitted or top-dose-only effect, or another doubt; inactive = flat fitted curve, though single readings scatter.
property-measured: outcome

FC(F)(F)c1nc2nc(Cl)c(Cl)nc2n1CCCN1CCOCC1 :: inactive
N=C(N)SCCc1ccncc1 :: inactive
O=C(O)CCSC1=NCCN1 :: inactive
O=[N+]([O-])c1cccc(/C=N\NC2=CS(=O)(=O)C=C2)c1 :: inactive

Incoming: Consider the compound CC(C)(C)c1cc2c(O)c(c1)Cc1cc(C(C)(C)C)cc(c1O)Cc1cc(C(C)(C)C)cc(c1O)Cc1cc(C(C)(C)C)cc(c1O)Cc1cc(C(C)(C)C)cc(c1O)Cc1cc(C(C)(C)C)cc(c1O)Cc1cc(C(C)(C)C)cc(c1O)Cc1cc(C(C)(C)C)cc(c1O)C2 and give its measured outcome.
Outgoing: inactive

----------
Test: AP1 Signaling Pathway (AID 357);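 further: ME-180 reporter cells stimulated with EGF at its EC50 level; on the % scale 0 is the no-effect control and ±100 the full control effect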
Conditions: ME-180 (cervical carcinoma) AP-1-bla reporter, EGF-induced, beta-lactamase ratio, 5 h; at 7.69 µM (top of the series) unless noted
Protocol: NCGC Assay Overview: Activator protein-1 (AP-1), a transcription factor, plays an important role in tumor genesis by regulating genes involved in cell proliferation, differentiation, apoptosis, and angiogenesis. AP-1 activity is induced by a complex network of signaling pathways that involves extracellular signals, such as growth factors. […] Library compounds were measured for their ability to modulate positively or negatively the action of EC50 EGF on reporter gene activity. […]
Inconclusive results are not listed. Active and inactive are the calls of the source. The call rests on the fitted dose curve; in most records, active means well fitted curve in either direction with a large enough effect (not every such curve was filed as active); inconclusive means small, poorly fitted or top-dose-only effect, or another doubt; inactive means flat fitted curve, though single readings scatter. Residues, ends and D or L forms follow the SMILES beside them.
I'd be grateful if you could share measured activity change, negative = inhibition for these entries.

Incoming: Consider the compound C[C@H]1C[C@@H]2[C@H]3CCC4=CC(=O)C=C[C@@]4(C)[C@@]3(Cl)[C@@H](O)C[C@]2(C)[C@]1(OC(=O)c1ccco1)C(=O)CCl and give its measured activity change, negative = inhibition.
Outgoing: -22% [at 17.2 µM] (inactive)

Incoming: Another compound: O=C(O)c1c[nH]c2c(ccc3[nH]cc(C(=O)O)c(=O)c32)c1=O
Outgoing: -0.603% (inactive)

Incoming: Another compound: CC(C)(C)NCC[C@@H](O)c1cc(C(F)(F)F)nc2c(C(F)(F)F)cccc12
Outgoing: 9.95% (inactive)

Incoming: Another compound: CC1(C)O[C@H]2[C@@H](c3[nH]nc4c(=O)[nH]c(=O)[nH]c34)OC[C@H]2O1
Outgoing: 8.08% (inactive)

Incoming: Another compound: Nc1cc(S(=O)(=O)O)cc2ccc(S(=O)(=O)O)cc12
Outgoing: 1.79% (inactive)

Incoming: Another compound: O=[N+]([O-])c1ccc(Cl)c(CNc2ncnc3c2ncn3[C@@H]2CCCCO2)c1
Outgoing: -3.17% (inactive)

Incoming: Another compound: O=C(O)CC[P+](c1ccccc1)(c1ccccc1)c1ccccc1
Outgoing: 2.51% (inactive)

Incoming: Another compound: Nc1nc(Cl)nc2c1ncn2[C@@H]1O[C@@H](CO)[C@@H](O)[C@H]1O
Outgoing: -7.62% [at 38 µM] (inactive)

Incoming: Another compound: Nc1ncnc2c1ncn2[C@@H]1O[C@@H](C(=O)NC2CC2)[C@H](O)[C@@H]1O
Outgoing: -9.63% [at 38 µM] (inactive)

Incoming: Another compound: COc1ccc(-c2nc(N)c3ncn([C@H]4O[C@@H](CO)[C@@H](O)[C@@H]4O)c3n2)cc1
Outgoing: -12.4% (inactive)

Incoming: Another compound: COc1ccc(-n2c(=O)c(C)nc3cnc(Nc4cccc(OC)c4)nc32)cc1
Outgoing: -25.7% (inactive)

Incoming: Another compound: S[C@@H]1CCCN(Cc2ccccc2)C1
Outgoing: 1.2% (inactive)

Incoming: Another compound: O=C1O/C(=C\Br)CC[C@@H]1c1cccc2ccccc12
Outgoing: -0.931% [at 38 µM] (inactive)

Incoming: Another compound: CCOC(=O)c1c(O)[nH]c(=O)c(CC)c1C
Outgoing: -5.14% (inactive)

Incoming: Another compound: COc1ccc2cc(C(=O)CCC(=O)O)ccc2c1
Outgoing: 1.75% (inactive)

Incoming: Another compound: O=c1cnc2cnc(Oc3ccccc3)nc2n1CCc1ccccc1
Outgoing: 6.02% (inactive)

Incoming: Another compound: O=C(O)[C@@H](O)c1ccc(F)cc1
Outgoing: 26.9% (inactive)

Incoming: Another compound: Nc1nc2c(ncn2[C@@H]2C=C[C@@H](CO)C2)c(=O)[nH]1
Outgoing: 2.92% (inactive)

Incoming: Another compound: O=C(O)CCC(=O)c1ccc2ccc3cccc4ccc1c2c34
Outgoing: 5.4% (inactive)

Incoming: Another compound: NCCSS(=O)(=O)CCN
Outgoing: 7.23% (inactive)

Incoming: Another compound: O=C(O)c1cc(C(=O)O)cc(N2C(=O)c3ccccc3C2=O)c1
Outgoing: 4.16% (inactive)

Incoming: Another compound: CC(C)(C)c1onc(OCP(=O)(O)O)c1C[C@@H](N)C(=O)O
Outgoing: -0.711% [at 38 µM] (inactive)

Incoming: Another compound: NCC(=O)N[C@H](CO)C(=O)O (HELM PEPTIDE1{G.[dS]}$$$$V2.0)
Outgoing: 12.3% (inactive)

Incoming: Another compound: N=C(N)SCc1cc(Cl)cc(Cl)c1O
Outgoing: 3.73% (inactive)

Incoming: Another compound: C[C@@H]1NCC[C@H](CC(=O)O)[C@H]1CC(=O)O
Outgoing: 8.61% (inactive)

Incoming: Another compound: COc1cccc2c1C(=O)c1c(O)c3c(c(O)c1C2=O)C[C@@](O)(C(=O)CO)C[C@H]3O[C@H]1C[C@@H](N)[C@H](O)[C@@H](C)O1.[W]
Outgoing: 0.391% (inactive)

Incoming: Another compound: Cc1cc(N2CCOCC2)nc2ccc(Cc3ccc4nc(N5CCOCC5)cc(C)c4c3)cc12
Outgoing: -21.7% (inactive)

Incoming: Another compound: CC(C)=CCNc1ncnc2nc[nH]c12
Outgoing: 3.85% (inactive)

Incoming: Another compound: N=C(N)SCc1ccc(Cl)cc1Cl (tested in a mixture with another compound)
Outgoing: 23.5% (inactive)

Incoming: Another compound: O=C(O)CCCc1ccc2ccccc2c1
Outgoing: -3.28% (inactive)

Incoming: Another compound: CC1=C(/C=C\C(=O)O)C(C)(C)CCC1
Outgoing: 4.18% (inactive)

Incoming: Another compound: NS(=O)(=O)c1cc(C(=O)O)c(Cl)c([N+](=O)[O-])c1Cl
Outgoing: 10.9% (inactive)

Incoming: Another compound: CN1CCN(c2ncc3nc(-c4cccs4)c(=O)n(C[C@H]4CCCO4)c3n2)CC1
Outgoing: 19.1% (inactive)

Incoming: Another compound: CC(C)(CO)N1CCN(C(=S)Nc2ccccc2)CC1
Outgoing: 7.77% (inactive)

Incoming: Another compound: CC1CCN(CC(=O)N2c3ccccc3Sc3cc4ccccc4cc32)CC1
Outgoing: 28.3% (inactive)

Incoming: Another compound: Nc1nc2c(c(=O)[nH]1)CN(c1ccc(S(N)(=O)=O)cc1)CN2
Outgoing: -2.56% (inactive)

Incoming: Another compound: CC(C)c1ccc(/C=C2\C=C(c3ccc4ccccc4c3)OC2=O)cc1
Outgoing: -7.05% (inactive)

Incoming: Another compound: O=c1c(-c2cccs2)nc2cnc(Oc3ccccc3)nc2n1C1CC1
Outgoing: -6.67% (inactive)

Incoming: Another compound: Nc1nc2c(c(=O)[nH]1)N[C@H](CCNc1ccc(C(=O)O)cc1)CN2
Outgoing: -0.0764% (inactive)

Incoming: Another compound: C[C@@H](N=C(N)N)C(=O)O
Outgoing: -6.66% (inactive)

Incoming: Another compound: C[C@H](Br)C(=O)Nc1ccc(C(=O)O)c(O)c1
Outgoing: 1.78% (inactive)

Incoming: Another compound: Cn1c(=O)c2[nH]c(CCCCC(=O)O)nc2n(C)c1=O
Outgoing: 1.28% (inactive)

Incoming: Another compound: NC(N)=NC[C@H](N)C(=O)O
Outgoing: 1.65% (inactive)

Incoming: Another compound: Oc1ccc(Cl)cc1C=Nc1cnc2ccccc2c1
Outgoing: 3.1% (inactive)

Reference source for all entries: PubChem BioAssay (NCATS)
